Recorded log10 of TGI by entry
Tested on: UO-31 renal
experiment: NCI tumour cell line growth inhibition, 48 h
Heads up, the numbers here are log10 of TGI in µM units.

compound="COc1ccc(C(O)c2cc3c(N)c(C(=O)Nc4cccc(Cl)c4C)sc3nc2C)cc1 (stereo not given)" quantitymeasured="log10 of TGI" readoutvalue=0.10

Exercise: State its log10 of TGI on UO-31 renal: C=C1C(=O)O[C@H]2[C@H]1CC/C(CNC(=O)/C=C/c1cccc(OC)c1)=C\CC[C@@]1(C)O[C@@H]21
Solution: 0.42

Exercise: State its log10 of TGI on UO-31 renal: OCCCCC#Cc1ccccc1C#Cc1ccccc1F
Solution: 1.67

Exercise: State its log10 of TGI on UO-31 renal: COc1ccc(Nc2ccnc(NCCNc3ccnc4cc(Cl)ccc34)n2)cc1
Solution: 0.57

Exercise: State its log10 of TGI on UO-31 renal: c1cc(C2CCCCC2)ccc1OCCCCCCN1CCNCC1
Solution: 0.53

Exercise: State its log10 of TGI on UO-31 renal: CNC(=O)c1c(NC(=O)c2cccc(C(F)(F)F)c2)sc2c1CCC(=O)C2
Solution: -0.11

* * *

Test system: RPMI-8226 leukemia
experiment: NCI tumour cell line growth inhibition, 48 h
quantityMeasured: TGI (µM)
Give the value, in units of µM, as a plain number.

Some molecules with recorded TGI:
molecule=C=C1C(=O)O[C@H]2[C@H]1CC/C(CNC(=O)/C=C/c1cccc(OC)c1)=C\CC[C@@]1(C)O[C@@H]21 readoutunit=µM readoutvalue=4.97
molecule=Cc1nccn1S(=O)(=O)c1ccc(Br)cc1Br readoutunit=µM readoutvalue=47.4
molecule=CN(C)CCOC(=O)c1ccc(N)cc1 readoutunit=µM readoutvalue=75.2
molecule=CN(C)c1ccc(/C=C/C(=O)C(C)(C)C)cc1Br readoutunit=µM readoutvalue=58.7

Now consider a different molecule.
Exercise: Quick check: TGI of COc1ccc(C2=CC(c3cc(OC)c(OC)c(OC)c3)NC(=O)N2)cc1OC (stereo unspecified) ?
Solution: 19.3

* * *

System: CAKI-1 renal
experiment: NCI tumour cell line growth inhibition, 48 h; in the data active means GI50 below about 0.43 µM; inactive means the rest
# valid calls are active, inactive; nothing else

Solved cases (8 shown):
molecule=CCCCCCOc1ccc(/C=N/NC(N)=S)cc1 qualitativelabel=inactive
molecule=COC(=O)Nc1nc2ccc(Oc3ccc(NC(=O)Nc4cccc(Br)c4)cc3)cc2[nH]1 qualitativelabel=inactive
molecule="O=S1(=O)N(Cc2ccccc2)[C@@H](Cc2ccccc2)C2O[C@H]2[C@H](Cc2ccccc2)N1Cc1ccccc1 (some centres undefined)" qualitativelabel=inactive
molecule=O=S(=O)([O-])[O-].[Cl-].[NH2-].[NH2-].[NH2-].[NH2-].[Ru+3].c1ccc(-c2cccnc2)cc1 qualitativelabel=inactive
molecule=C[C@@H]1COCCN1c1nc(-c2cnc(N)cc2C(F)F)nc(N2[C@H](C)COC[C@@H]2C)n1 qualitativelabel=active
molecule=CSc1ccc(-c2cc(-c3ccc(NC(=O)CCCN4CCCC4)cc3)nc(-c3ccc(NC(=O)CCCN4CCCC4)cc3)c2)cc1 qualitativelabel=inactive
molecule=COc1cc(C(=O)/C=C/c2c(-c3ccc(F)cc3)nc3sc(C)cn23)cc(OC)c1OC qualitativelabel=inactive
molecule=OCCCCC#Cc1ccccc1C#Cc1ccccc1F qualitativelabel=inactive

Exercise: What did the test return for CC1=C(C(=O)Nc2ccc3[nH]ncc3c2)C(c2ccc(F)cc2)NC(=O)N1 (centres undefined) ?
Solution: inactive
